studySystem: Prostaglandin G/H synthase 1 (Ovis aries, UniProt P05979)
Sequence (P05979 whole entry): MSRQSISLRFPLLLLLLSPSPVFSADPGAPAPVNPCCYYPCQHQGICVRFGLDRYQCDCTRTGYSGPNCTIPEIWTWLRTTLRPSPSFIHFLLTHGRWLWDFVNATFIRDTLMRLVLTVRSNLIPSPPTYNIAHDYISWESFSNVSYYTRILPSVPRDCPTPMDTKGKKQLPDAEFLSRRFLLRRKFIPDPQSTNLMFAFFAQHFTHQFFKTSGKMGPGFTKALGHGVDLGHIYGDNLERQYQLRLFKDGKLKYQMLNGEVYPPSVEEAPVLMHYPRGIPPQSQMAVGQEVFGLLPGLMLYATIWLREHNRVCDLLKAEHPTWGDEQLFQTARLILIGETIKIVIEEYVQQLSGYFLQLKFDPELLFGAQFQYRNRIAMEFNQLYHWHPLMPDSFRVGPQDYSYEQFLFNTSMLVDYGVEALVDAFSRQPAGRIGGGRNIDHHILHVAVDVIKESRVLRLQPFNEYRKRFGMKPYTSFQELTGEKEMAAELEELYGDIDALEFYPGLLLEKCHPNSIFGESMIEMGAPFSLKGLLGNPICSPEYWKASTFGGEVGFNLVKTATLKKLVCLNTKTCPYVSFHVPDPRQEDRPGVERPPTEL
measurementDescription: Inhibition of ovine COX1 using arachidonic acid as substrate pretreated for 3 mins followed by substrate addition measured immediately
experimentalParameters: read-out: IC50
# IC50 values compiled below

>  <structureAsSmiles>
COc1ccc2ccc(=O)oc2c1CC=C(C)C

>  <studySystem>
Prostaglandin G/H synthase 1 (Ovis aries, UniProt P05979)

>  <readingUnit>
µM

>  <IC50>
52.5

$$$$
>  <structureAsSmiles>
COc1ccc2ccc(=O)oc2c1C/C=C(\C)COC(=O)C=C(C)C

>  <studySystem>
Prostaglandin G/H synthase 1 (Ovis aries, UniProt P05979)

>  <readingUnit>
µM

>  <IC50>
36.8

$$$$
>  <structureAsSmiles>
COc1ccc2ccc(=O)oc2c1C/C=C(\C)COC(=O)CC(C)C

>  <studySystem>
Prostaglandin G/H synthase 1 (Ovis aries, UniProt P05979)

>  <readingUnit>
µM

>  <IC50>
47.7

$$$$
